- System: PMN's (polymorphonuclear leukocytes)
- testName: Neutrophil oxidative burst assay
- Format: cell-based
- measurementParameters: Leukocyte, 40 min, read-out: Neutrophil oxidative burst Rel EC50 range
pEC50: −log10 of the molar value.
metric: pEC50

[[record]]
compound = "CC1=C[C@]23C(=O)[C@@H](C=C(CO)[C@@H](O)[C@]2(O)[C@H]1OC(=O)C(c1ccccc1)c1ccccc1)[C@H]1[C@@H](C[C@H]3C)C1(C)C [Compound 119, Ingenol 3-(2,2-diphenylacetate)]"
resultvalue = "> 7.70"

[[record]]
compound = "C=C(C)C(=O)O[C@H]1C(C)=C[C@]23C(=O)[C@@H](C=C(CO)[C@@H](O)[C@]12O)[C@H]1[C@@H](C[C@H]3C)C1(C)C [Compound 101, Ingenol 3-(2-methyl-acrylate)]"
resultvalue = "> 7.70"

[[record]]
compound = "CC1=C[C@]23C(=O)[C@@H](C=C(CO)[C@@H](O)[C@]2(O)[C@H]1OC(=O)C(=O)N(C)c1ccccc1)[C@H]1[C@@H](C[C@H]3C)C1(C)C [Compound 121]"
resultvalue = "7.00 to 7.70"

[[record]]
compound = "CO/N=C(\\C(=O)O[C@H]1C(C)=C[C@]23C(=O)[C@@H](C=C(CO)[C@@H](O)[C@]12O)[C@H]1[C@@H](C[C@H]3C)C1(C)C)c1ccccc1 [Compound 115]"
resultvalue = "7.00 to 7.70"

[[record]]
compound = "COC(=O)/C=C/C(=O)O[C@H]1C(C)=C[C@]23C(=O)[C@@H](C=C(CO)[C@@H](O)[C@]12O)[C@H]1[C@@H](C[C@H]3C)C1(C)C [Compound 113]"
resultvalue = "< 7.00"

[[record]]
compound = "CC1=C[C@]23C(=O)[C@@H](C=C(CO)[C@@H](O)[C@]2(O)[C@H]1OC(=O)CC(C)(C)C)[C@H]1[C@@H](C[C@H]3C)C1(C)C [Compound 108, Ingenol 3-(3,3-dimethyl-butanoate)]"
resultvalue = "> 7.70"

[[record]]
compound = "CC1=C[C@]23C(=O)[C@@H](C=C(CO)[C@@H](O)[C@]2(O)[C@H]1OC(=O)CC(C)C)[C@H]1[C@@H](C[C@H]3C)C1(C)C [Compound 106, Ingenol 3-(3-methyl-butanoate)]"
resultvalue = "> 7.70"

[[record]]
compound = "C=C(CC)C(=O)O[C@H]1C(C)=C[C@]23C(=O)[C@@H](C=C(CO)[C@@H](O)[C@]12O)[C@H]1[C@@H](C[C@H]3C)C1(C)C [Compound 104, Ingenol 3-(2-methylene-butyrate)]"
resultvalue = "> 7.70"


---

- System: PMN's (polymorphonuclear leukocytes)
- testName: Neutrophil oxidative burst assay
- Type: cell-based
- measurementParameters: Leukocyte, 40 min, read-out: Neutrophil oxidative burst Rel EC50 range
pEC50: −log10 of the molar value.
metric: pEC50

[[record]]
molecule = "CC1=C[C@]23C(=O)[C@@H](C=C(CO)[C@@H](O)[C@]2(O)[C@H]1OC(=O)C(C)C)[C@H]1[C@@H](C[C@H]3C)C1(C)C [Compound 105, Ingenol 3-(2-methyl-propanoate)]"
metric = "pEC50"
resultvalue = "> 7.70"

[[record]]
molecule = "CC1=C[C@]23C(=O)[C@@H](C=C(CO)[C@@H](O)[C@]2(O)[C@H]1OC(=O)C(C)C1CCCCC1)[C@H]1[C@@H](C[C@H]3C)C1(C)C (some centres unmarked) [Compound 114, Ingenol 3-(2-cyclohexylpropanoate)]"
metric = "pEC50"
resultvalue = "> 7.70"

